Exercise: state measured T/C for each of the molecules provided.
# System: L1210 leukemia ip in BDF1 mice, survival T/C
# PROTOCOL_SUMMARY: NCI In Vivo Anticancer Drug Screen. Data for tumor model L1210 Leukemia (intraperitoneal) in B6D2F1 (BDF1) mice
# CONDITION_INFO: endpoint: mean survival time; dose: 200.0 mg/kg/injection; schedule: Q01DX009 (ip); vehicle: saline with Tween-80; higher = longer survival
Inconclusive results and toxic doses are left out.

C[C@]12C=CC(=O)C=C1CC[C@@H]1[C@@H]2C(=O)C[C@@]2(C)[C@H]1CC[C@]2(O)C(=O)CO    102 % of control
COc1cc(/C=C(/C#N)C(N)=O)cc(OC)c1OC    93 % of control

Report T/C for every entry below.
1. COC(=O)CCCCC(=O)OC
2. BrC(Br)(c1ccccc1)C1OCCO1
3. O=[N+]([O-])c1cc(Cl)ccc1N1CCCCC1
4. Cc1ccc(C(=O)/C=C\c2ccccc2)cc1
5. CSc1n[nH]c(N)n1

1. 102 % of control
2. 93 % of control
3. 98 % of control
4. 97 % of control
5. 92 % of control

Source listed as PubChem BioAssay AID248.
